# Tested on: Rattus norvegicus
# ASSAY_OVERVIEW: Hypertensive activity (increase in arterial pressure to 60 mmHg)) after i.v. administration to pithed rats.

COMPOUND	TARGET_DESC	pC60
Clc1cccc(Cl)c1NC1=NCCN1	Rattus norvegicus	1.78 uM kg-1
c1ccc2c(c1)CCCC2C1=NCCN1 (stereo unspecified) [TETRAHYDROZOLINE]	Rattus norvegicus	0.9 uM kg-1
CC(Oc1c(Cl)cccc1Cl)C1=NCCN1 (stereo unspecified)	Rattus norvegicus	1.99 uM kg-1
CCCN(CCC)C1CCc2ccc(O)cc2C1 (stereo unspecified)	Rattus norvegicus	-0.09 uM kg-1
CNC[C@H](O)c1cccc(O)c1	Rattus norvegicus	1.55 uM kg-1
Cc1cc(C(C)(C)C)cc(C)c1CC1=NCCN1	Rattus norvegicus	1.12 uM kg-1
Cc1csc(Cl)c1NC1=NCCN1	Rattus norvegicus	1.2 uM kg-1
C=CCN1CCc2nc(N)sc2CC1 [TALIPEXOLE]	Rattus norvegicus	0.69 uM kg-1
c1ccc2c(CC3=NCCN3)cccc2c1	Rattus norvegicus	1.83 uM kg-1
Cn1cc2c(NC3=NCCN3)cccc2n1	Rattus norvegicus	-0.24 uM kg-1
N=C(N)N/N=C/c1c(Cl)cccc1Cl	Rattus norvegicus	0.93 uM kg-1
